B1: HDV Ribozyme (parent)
chain: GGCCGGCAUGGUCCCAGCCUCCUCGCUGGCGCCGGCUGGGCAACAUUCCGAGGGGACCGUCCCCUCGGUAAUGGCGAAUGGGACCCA

# Variants of: B1
# Test Description: self-cleavage, relative activity (ratio to wild type); higher = more cleavage; co-transcriptional

{"Macromolecule Sequence": "GGCCGGCAUGGUCCCAGCCUCCUCGCUGGCGCCGGCUGGGCAACAUUCCGAGCGGACCGUCCCCUCGGUAAUGGCGAAAGGGACCCA", "self-cleavage": 0.538}
{"Macromolecule Sequence": "GGCCGGCAUGGUCCCCGCCUCCUCGCUGGCGCCGGCUGGGCAACAUUCCGAGGGGACCUUCCCCUCGGUAAUGGCGAAUGGGACCCA", "self-cleavage": 0.808}
{"Macromolecule Sequence": "GGCCGGCAUGGUUCCAGCCUCCUCGCUGGCGCCGGCUGGGCAACACUCCGAGGGGACCGUCCCCUCGGUAAUGGCGAAUGGGACCCA", "self-cleavage": 0.138}
